pKi: −log10 of the molar value.
// cross-study collection: pKi for Carbonic anhydrase 1 (Homo sapiens)

CN(CCCCCCCOC(=O)c1c2ccccc2cc2ccccc12)CCOC(=O)COc1ccc2ccc(=O)oc2c1: < 5.00
NC1=NC2(CCCCCC2)N(c2ccc(S(=O)(=O)Nc3ccccn3)cc2)C(N)=N1: < 5.00
COc1ccc(NCc2cn(-c3ccc4oc(=O)ccc4c3)nn2)cc1: < 4.30
COc1cc(/C=C/C(=O)OCCCCCCN(C)CCCOC(=O)COc2ccc3ccc(=O)oc3c2)cc(OC)c1OC: < 5.00
CC(=O)N[C@@H](C)C(=O)Nc1ccc2c(C)cc(=O)oc2c1: < 5.00
O=C(COc1ccc2oc(=O)ccc2c1)NCc1ccccc1: < 5.00
COC(=O)[C@H](Cc1ccccc1)NC(=O)N[C@@H](C)C(=O)Nc1ccc2c(C)cc(=O)oc2c1: < 5.00
O=C(O)c1ccc(NS(=O)(=O)c2ccc(N3C(=O)c4ccccc4C3=O)cc2)cc1: < 5.00
O=C(OCCCCCCN(CCCOC(=O)c1c2ccccc2cc2ccccc12)CCCOc1ccc2ccc(=O)oc2c1)c1c2ccccc2cc2ccccc12: < 5.00

Check the records and state pKi for Cc1cc(=O)oc2cc(OCCCCCCN3C(=S)NC4C(O)C(C(O)CO)OC43)ccc12 (stereo not shown) < 4.00

====

What follows is literature data on Ki for Carbonic anhydrase 1 (Homo sapiens, UniProt P00915).

COc1cc(C(=O)OCCCCCCN(CCCOC(=O)c2c3ccccc3cc3ccccc23)CCCOc2ccc3ccc(=O)oc3c2)cc(OC)c1OC: > 10 µM
O=C1c2ccccc2C(=O)N1c1ccc(S(=O)(=O)Nc2ccc([N+](=O)[O-])cc2)cc1: > 10 µM
CCOC(=O)c1ccc(NC(=S)NC(=O)c2cccc(NC(=O)c3ccc(C)cc3)c2)cc1: > 100 µM
COc1ccc(NC(=O)NCc2cn(CCCCS(N)(=O)=O)nn2)c(C)c1: > 10 µM
NS(=O)(=O)c1ccc2c(c1)CCN2C(=O)C1CCCCC1: 0.067 µM
O=C1c2ccccc2C(=O)N1c1ccc(S(=O)(=O)N(c2ccccc2)c2ccccc2)cc1: > 10 µM
COc1cc(C(=O)OCCCN(CCCCCCOC(=O)c2c3ccccc3cc3ccccc23)CCCOc2ccc3ccc(=O)oc3c2)cc(OC)c1OC: > 10 µM

Now consider a different molecule.
Provide measured Ki value, entry: `CC1(C)N=C(N)N=C(N)N1c1ccc(S(=O)(=O)Nc2ccccn2)cc1.Cl` > 10 µM
